tested on: DeltatarO mutant; assay: S. aureus survival, RN4220 and DeltatarO strains – OD600, teichoic acid synthesis inhibitors, primary screen (AID 463173); conditions: S. aureus RN4220 wild type/DeltatarO growth, OD600, 18 h, active compounds read low, screened at 18.75 µg/mL (by protocol)
The whole screen tested about 52,000 compounds, of which about 4,300 (8.3%) were called active. The list comes from a sample in which actives are over-represented; it also holds close analogues and randomly drawn compounds.
List of survival values.

{"columns": ["MOLECULE", "UNITS LABEL", "survival"],
 "data": [
  ["COc1ccccc1CNS(=O)(=O)c1ccc2c(c1)CC(C)N2C(C)=O (stereo unspecified)", "%", 71],
  ["O=C(NC1CCCCC1)c1ccc2c(c1)sc1nc(-c3ccc(F)cc3)cn12", "%", 62],
  ["COc1cccc(N2CCN(C(=O)CN3CCSc4ccccc43)CC2)c1", "%", 83],
  ["CCC1CCCCN1CCCNC(=O)c1ccc2c(c1)sc1nc(-c3ccc(F)cc3)cn12 (stereo unspecified)", "%", 14],
  ["Cc1ccc(C)c(NC(=O)CN2C(=O)C3(SCC(=O)N3c3ccc(C)c(C)c3)c3ccccc32)c1 (stereo unspecified)", "%", 80],
  ["Cc1c(C(=O)N2CCOCC2)sc(NC(=O)c2ccc3c(c2)OCO3)c1C#N", "%", 90],
  ["CCn1nc(-c2ccccc2)c(-c2ccccc2)c(C(=O)Nc2ccccc2C(N)=O)c1=O", "%", 77],
  ["CC(=O)Nc1ccc(-c2cc(C(=O)O)c3c(-c4ccccc4)[nH]nc3n2)cc1", "%", 56],
  ["O=C(NC1CCCCCC1)c1ccc2c(c1)sc1nc(-c3ccc(F)cc3)cn12", "%", 85],
  ["CCc1ccccc1NC(=O)C(=O)c1cc(C)n(-c2ccccc2F)c1C", "%", 87],
  ["COc1ccc(-c2cc(C)no2)cc1S(=O)(=O)N1CCOc2ccc(Cl)cc21", "%", 92],
  ["Cc1ccc(-n2c3nc(=O)[nH]c(=O)c-3cc3c(C)nn(-c4ccccc4)c32)cc1Cl", "%", 85],
  ["CCc1ccc(-c2cn3c(n2)sc2cc(C(=O)NC4CCCCC4)ccc23)cc1", "%", 87],
  ["CCOC(=O)c1scc(-c2ccccc2)c1S(=O)(=O)Nc1ccc(N(C)C)cc1", "%", 86],
  ["NS(=O)(=O)c1ccc(CCNC(=O)C2CCN(c3ncnc4c3nc3n4CCCCC3)CC2)cc1", "%", 83],
  ["COc1ccc(S(=O)(=O)C(C)(C)C)cc1", "%", 78],
  ["O=C(CN1C(=O)C2(SCC(=O)N2c2ccc(F)c(F)c2)c2ccccc21)Nc1ccccc1F (stereo unspecified)", "%", 94],
  ["Cc1cc(Cl)ccc1NC(=O)C(=O)NCc1ccco1", "%", 135],
  ["O=C(Nc1ccc(Br)cc1)c1ccc2c3c(onc13)-c1ccccc1C2=O", "%", 72],
  ["COc1ccc(-c2cc(-c3ccccc3)nc3c2COc2ccc(F)cc2-3)cc1", "%", 73],
  ["CC1CCCCN1CCCNC(=O)c1ccc2c(c1)sc1nc(-c3ccc(F)cc3)cn12 (stereo unspecified)", "%", 29]
]}

---

test system: DeltatarO mutant; experiment: S. aureus survival, RN4220 and DeltatarO strains – OD600, teichoic acid synthesis inhibitors, primary screen (AID 463173); conditions: S. aureus RN4220 wild type/DeltatarO growth, OD600, 18 h, screened at 18.75 µg/mL (by protocol)
Among all 52,000 compounds or so, about 4,300 (8.3%) were called active. No stated cut-off is given here; in the data, active means survival mostly below about 52% (no sharp cut-off); inactive means mostly above about 56%. Only a selection was taken, and actives are over-represented in it overall.
Outcomes: Yes = active, No = inactive

{"columns": ["MOL SMILES", "CLASS NAME"],
 "data": [
  ["Cc1ccc(NC(=O)Cn2nnc(C(=O)NCCc3ccccc3)c2N)cc1Cl", "No"],
  ["Cc1ccc(NC(=O)Cn2nnc(C(=O)NCCc3ccccc3)c2N)cc1C", "Yes"],
  ["CCc1ccccc1NC(=O)Cn1nnc(C(=O)NCc2cccs2)c1N", "No"],
  ["COc1ccc(NC(=O)Cn2nnc(C(=O)Nc3ccc(F)c(Cl)c3)c2N)cc1OC", "Yes"],
  ["COc1cccc(CNC(=O)c2nnn(CC(=O)Nc3cc(Cl)ccc3C)c2N)c1", "Yes"]
]}

---

tested on: DeltatarO mutant; assay: S. aureus survival, RN4220 and DeltatarO strains – OD600, teichoic acid synthesis inhibitors, primary screen (AID 463173); details: S. aureus RN4220 wild type/DeltatarO growth, OD600, 18 h, active compounds read low, screened at 18.75 µg/mL (by protocol)
About 4,300 (8.3%) of roughly 52,000 compounds were called active. The list comes from a sample in which actives are over-represented; it also holds close analogues and randomly drawn compounds.
Lab note: cut-off is 50%. Strictly less in survival is label 1. Exactly 50% or more is label 0.

{"columns": ["MOL SMILES", "CLASS NAME"],
 "data": [
  ["O=C(Nc1ccccc1)c1cc2c(-c3ccccc3)nn(-c3ccccc3)c2s1", "label 1"],
  ["COc1cccc(NC(=O)c2cc3c(-c4ccc(Cl)cc4)nn(C)c3s2)c1", "label 0"],
  ["Cc1nn(-c2ccccc2)c2sc(C(=O)N3CCOCC3)cc12", "label 0"],
  ["CCCc1c(O)nc(SCC(=O)N2CCCCC2)[nH]c1=O", "label 0"],
  ["Cn1c(=O)oc2cc(S(=O)(=O)N3CCC(C(=O)N4CCN(c5ccc(Cl)cc5)CC4)CC3)ccc21", "label 0"],
  ["Cc1nn(-c2ccccc2)c2sc(C(=O)Nc3cccc(O)c3)cc12", "label 1"],
  ["Cc1nn(-c2ccccc2)c2sc(C(=O)Nc3cccc(Cl)c3)cc12", "label 1"],
  ["Cc1nn(-c2ccccc2)c2sc(C(=O)Nc3ccc(Cl)cc3Cl)cc12", "label 0"]
]}

---

test system: DeltatarO mutant; assay: S. aureus survival, RN4220 and DeltatarO strains – OD600, teichoic acid synthesis inhibitors, primary screen (AID 463173); conditions: S. aureus RN4220 wild type/DeltatarO growth, OD600, 18 h, active compounds read low, screened at 18.75 µg/mL (by protocol)
About 4,300 (8.3%) of roughly 52,000 compounds were called active. The sample holds actives, similar compounds and a random draw of the others, so the mix is not that of the screen.
Lab note - cut at 40% for survival: T if strictly below, F if not.

{"columns": ["MOL SMILES", "TGT", "CLASS NAME"],
 "data": [
  ["CCOc1ccccc1C(=O)Nc1c(C(=O)Nc2ccc(F)cc2)oc2ccccc12", "DeltatarO mutant", "F"],
  ["CCOc1cccc(C(=O)Nc2c(C(=O)c3ccc(OC)cc3)oc3ccccc23)c1", "DeltatarO mutant", "T"],
  ["COCCNC(=O)c1cnc2sc(N3CCC(C)CC3)nn2c1=O", "DeltatarO mutant", "F"],
  ["COc1ccc(C(=O)c2oc3ccccc3c2NC(=O)c2cccc(OC)c2)cc1", "DeltatarO mutant", "F"]
]}

---

survival overview
tested on: DeltatarO mutant; test: S. aureus survival, RN4220 and DeltatarO strains – OD600, teichoic acid synthesis inhibitors, primary screen (AID 463173); conditions: S. aureus RN4220 wild type/DeltatarO growth, OD600, 18 h, active compounds read low, screened at 18.75 µg/mL (by protocol)
Among all 52,000 compounds or so, about 4,300 (8.3%) were called active. The sample holds actives, similar compounds and a random draw of the others, so the mix is not that of the screen.

{"columns": ["COMPOUND", "survival [%]"],
 "data": [
  ["CCOC(=O)c1cc2c(=O)n3ccccc3nc2n(Cc2ccco2)c1=NC(=O)c1ccc(OC)cc1", 34],
  ["CCOC(=O)c1ccccc1NC(=O)C1CCN(c2ncnc3c2nc2n3CCCCC2)CC1", 62],
  ["CC(=O)Nc1cc(-c2nc3ccccc3s2)ccc1C", 83],
  ["Cc1ccc2nc(-c3ccc(NC(=O)COc4ccccc4)cc3)sc2c1", 68],
  ["CCOC(=O)c1cc2c(=O)n3ccccc3nc2n(Cc2ccco2)c1=NC(=O)c1ccc(OCC)cc1", 37],
  ["Cc1ccc(NCc2ccccc2-c2nnc(-c3ccccc3Cl)o2)c(C)c1", 83],
  ["COc1ccc(-c2nc3ccccc3s2)cc1NC(=O)COc1ccc(C)cc1", 129],
  ["Cc1cccc(C)c1OCCn1c(C2CC(=O)N(c3cccc(Cl)c3)C2)nc2ccccc21 (stereo unspecified)", 57],
  ["CCOC(=O)c1cc2c(=O)n3ccccc3nc2n(CC(C)C)c1=NC(=O)COc1ccc(Cl)cc1", 136],
  ["Cc1ccc2nc(-c3ccc(NC(=O)COc4c(C)ccc(C)c4C)cc3)sc2c1", 38],
  ["CCOC(=O)C1(C)C=C(Nc2ccc(C(N)=O)cc2)C(=O)N1c1ccccc1 (stereo unspecified)", 68],
  ["Cc1cc(-c2ccc(C)c(S(=O)(=O)Nc3cccc(C)n3)c2)on1", 75],
  ["COc1ccc(-c2nc3ccccc3s2)cc1NC(=O)COc1ccccc1C", 142],
  ["CCCC(=O)Nc1cccc(-c2cn3c(C)csc3n2)c1", -5],
  ["CCOC(=O)c1cc2c(=O)n3ccccc3nc2n(Cc2ccco2)c1=NC(=O)c1ccccc1OC", 28],
  ["COc1ccc(-c2nc3ccccc3s2)cc1NC(=O)COc1cccc(C)c1", 16],
  ["Cc1ccc(-c2nc3ccccc3s2)cc1NC(=O)COc1ccccc1", 54],
  ["Cc1csc2nc(-c3cccc(NC(=O)C(C)C)c3)cn12", 73],
  ["COc1ccc(CCn2c(=O)c3cccnc3n(CC(=O)Nc3c(C)cc(C)cc3C)c2=O)cc1OC", 90],
  ["COc1ccc(OCC(=O)Nc2cc(-c3nc4ccccc4s3)ccc2C)cc1", 45],
  ["Cc1ccc2nc(-c3ccc(NC(=O)COc4ccc(Cl)c(C)c4)cc3)sc2c1", 74]
]}
